Taken from patent US6204293A.

Molecular target: Rat brain protein farnesyltransferase (Rattus norvegicus, UniProt Q02293+Q04631)
Construct: Rat brain protein farnesyltransferase activity is measured; from tissue; host or cells: rat brain
Test: % inhibition of farnesylation, scintillation proximity assay with biotin-K Ras B fragment
Format: biochemical
Conditions: Table 4; 1 × 10^-8 M
ASSAY ENDPOINT: % inhibition at 1 × 10^-8 M (%)

CHEMICAL STRUCTURE: CCSC[C@H](CC1CCCCC1)N(C)Cc1ccc(C(=O)N[C@@H](CCSC)C(=O)O)c(-c2ccccc2C)c1
% inhibition at 1 × 10^-8 M [%]: 88
//
CHEMICAL STRUCTURE: COc1cccc(CN(Cc2ccc(C(=O)N[C@@H](CCSC)C(=O)O)c(-c3ccccc3C)c2)c2ccccc2)c1
% inhibition at 1 × 10^-8 M [%]: 70
//
CHEMICAL STRUCTURE: CSCC[C@H](NC(=O)c1ccc(CN(CCC2CCCCC2)C2CC2)cc1-c1ccccc1C)C(=O)O
% inhibition at 1 × 10^-8 M [%]: 95
//
CHEMICAL STRUCTURE: CSCC[C@H](NC(=O)c1ccc(CN(Cc2ccc3c(c2)OCO3)c2cnccn2)cc1-c1ccccc1C)C(=O)O
% inhibition at 1 × 10^-8 M [%]: 92
//
CHEMICAL STRUCTURE: CSCC[C@H](NC(=O)c1ccc(CN(C)C(CC2CCCCC2)CC2CCCCC2)cc1-c1ccccc1C)C(=O)O
% inhibition at 1 × 10^-8 M [%]: 79
//
CHEMICAL STRUCTURE: COc1ccc(N(Cc2ccccc2)Cc2ccc(C(=O)N[C@@H](CCSC)C(=O)O)c(-c3ccccc3C)c2)cc1
% inhibition at 1 × 10^-8 M [%]: 73
//
CHEMICAL STRUCTURE: CSCC[C@H](NC(=O)c1ccc(CN(Cc2ccccc2)c2ccc(SC)cc2)cc1-c1ccccc1C)C(=O)[O-].[Li+]
% inhibition at 1 × 10^-8 M [%]: 79
//
CHEMICAL STRUCTURE: CSCC[C@H](NC(=O)c1ccc(CN(Cc2ccccc2)c2cccc(SC)c2)cc1-c1ccccc1C)C(=O)[O-].[Li+]
% inhibition at 1 × 10^-8 M [%]: 82
//
CHEMICAL STRUCTURE: CSCC[C@H](NC(=O)c1ccc(CN(Cc2ccccc2)c2cccc(Cl)c2)cc1-c1ccccc1C)C(=O)O
% inhibition at 1 × 10^-8 M [%]: 85
//
CHEMICAL STRUCTURE: CSCC[C@H](NC(=O)c1ccc(CON=C(Cc2ccccc2)Cc2ccccc2)cc1-c1ccccc1C)C(=O)O
% inhibition at 1 × 10^-8 M [%]: 86
//
CHEMICAL STRUCTURE: CSCC[C@H](NC(=O)c1ccc(CN[C@H](CSC2CCCCC2)CC2CCCCC2)cc1-c1ccccc1C)C(=O)O
% inhibition at 1 × 10^-8 M [%]: 95
//
CHEMICAL STRUCTURE: CSCC[C@H](NC(=O)c1ccc(CCc2ccc(Oc3ccc(Cl)cc3)cc2)cc1-c1ccccc1C)C(=O)O
% inhibition at 1 × 10^-8 M [%]: 85
//
CHEMICAL STRUCTURE: CSCC[C@H](NC(=O)c1ccc(CN2CCC[C@H]2COCC2CCCCC2)cc1-c1ccccc1C)C(=O)O
% inhibition at 1 × 10^-8 M [%]: 93
//
CHEMICAL STRUCTURE: CSCC[C@H](NC(=O)c1ccc(CN(Cc2ccccc2)c2ccc(Cl)cc2)cc1-c1ccccc1C)C(=O)O
% inhibition at 1 × 10^-8 M [%]: 87
